Molecular target: cell-surface VLA-4 (α4β1 integrin) on Ramos cells binding to immobilized VCAM-1 (Homo sapiens, UniProt P05556+P13612)
Construct: Ramos cells bearing cell-surface VLA-4; endogenous in cells; host or cells: Ramos cells (VLA-4); VCAM-1 purified from CHO cell culture media
Experiment: Ramos (VLA-4)/VCAM-1 Cell-Based Screening Assay (cell adhesion)
Conditions: Conc. 10 nM; Ramos cell adhesion to VCAM-1
Description: Calcein-AM was purchased from Molecular Probes Inc. VLA-4 (α4β1 integrin) antagonist activity, defined as ability to compete with cell-surface VLA-4 for binding to immobilized VCAM-1, was quantitated using a Ramos-VCAM-1 cell adhesion assay. Ramos cells bearing cell-surface VLA-4, were labeled with a fluorescent dye (Calcein-AM) and allowed to bind VCAM-1 in the presence or absence of test compounds. […]
readout name: inhibition at 0.01 µM (%)
Express your answer in %, writing the number without its unit.

[
  {
    "compound": "CCCC(=O)N1C(Cc2cccnc2)C(=O)N(c2ccc(CC(NC(=O)C3(CCNC(C)=O)CCCC3)C(=O)O)cc2)C1c1ccccc1 (stereo not drawn)",
    "inhibition at 0.01 µM / %": 32
  },
  {
    "compound": "CCCC(=O)N1C(Cc2ccccc2)C(=O)N(c2ccc(CC(NC(=O)C3(CCNC(C)=O)CCCC3)C(=O)O)cc2)C1c1ccc(Cl)cc1 (single isomer, unassigned)",
    "inhibition at 0.01 µM / %": 59
  }
]

Field: next compound
Record summary for CC(=O)NCCC1(C(=O)NC(Cc2ccc(N3C(=O)C(Cc4ccccc4)N(C(C)=O)C3c3ccc(Cl)cc3)cc2)C(=O)O)CCCC1 (single isomer, unassigned) : reported inhibition at 0.01 µM = 68

----------
Molecular target: cell-surface VLA-4 (α4β1 integrin) on Ramos cells binding to immobilized VCAM-1 (Homo sapiens, UniProt P05556+P13612)
Construct: Ramos cells bearing cell-surface VLA-4; endogenous in cells; host or cells: Ramos cells (VLA-4); VCAM-1 purified from CHO cell culture media
Assay: Ramos (VLA-4)/VCAM-1 Cell-Based Screening Assay (cell adhesion)
Details: Calcein-AM labeled Ramos cells, VCAM-1 coated plates, 45 min at room temperature; read-out: IC50 in Ramos Cell Based Assay
pIC50: −log10 of the molar value.
pIC50 below 7 gives not met; pIC50 at or above it gives met.

Worked examples, 3 compounds total:
[
  {
    "compound": "CC(=O)NCCCC1(C(=O)N[C@@H](Cc2ccc(NC(=O)c3c(Cl)cccc3Cl)cc2)C(=O)O)CCCC1",
    "class": "met"
  },
  {
    "compound": "CNC(=O)NCCC1(C(=O)N[C@@H](Cc2ccc(NC(=O)c3c(Cl)cccc3Cl)cc2)C(=O)O)CCCC1",
    "class": "met"
  },
  {
    "compound": "O=C(NCCC1(C(=O)N[C@@H](Cc2ccc(NC(=O)c3c(Cl)cccc3Cl)cc2)C(=O)O)CCCC1)Nc1ccccc1[N+](=O)[O-]",
    "class": "not met"
  }
]

Note: attention shifts to another entry.
-- ask Hello, I need to know if NCC(=O)NCCC1(C(=O)N[C@@H](Cc2ccc(NC(=O)c3c(Cl)cccc3Cl)cc2)C(=O)O)CCCC1 has measured pIC50 not below 7. Thanks!
-- reply not met

----------
Target: VLA-4 (α4β1 integrin) binding to immobilized VCAM-1 (Homo sapiens, UniProt P05556+P13612)
Construct: followed by 10 μl of Ramos cell-derived VLA-4; endogenous in cells; host or cells: Ramos cells (VLA-4 preparation derived from the cells)
Sequence (P13612 34-1032): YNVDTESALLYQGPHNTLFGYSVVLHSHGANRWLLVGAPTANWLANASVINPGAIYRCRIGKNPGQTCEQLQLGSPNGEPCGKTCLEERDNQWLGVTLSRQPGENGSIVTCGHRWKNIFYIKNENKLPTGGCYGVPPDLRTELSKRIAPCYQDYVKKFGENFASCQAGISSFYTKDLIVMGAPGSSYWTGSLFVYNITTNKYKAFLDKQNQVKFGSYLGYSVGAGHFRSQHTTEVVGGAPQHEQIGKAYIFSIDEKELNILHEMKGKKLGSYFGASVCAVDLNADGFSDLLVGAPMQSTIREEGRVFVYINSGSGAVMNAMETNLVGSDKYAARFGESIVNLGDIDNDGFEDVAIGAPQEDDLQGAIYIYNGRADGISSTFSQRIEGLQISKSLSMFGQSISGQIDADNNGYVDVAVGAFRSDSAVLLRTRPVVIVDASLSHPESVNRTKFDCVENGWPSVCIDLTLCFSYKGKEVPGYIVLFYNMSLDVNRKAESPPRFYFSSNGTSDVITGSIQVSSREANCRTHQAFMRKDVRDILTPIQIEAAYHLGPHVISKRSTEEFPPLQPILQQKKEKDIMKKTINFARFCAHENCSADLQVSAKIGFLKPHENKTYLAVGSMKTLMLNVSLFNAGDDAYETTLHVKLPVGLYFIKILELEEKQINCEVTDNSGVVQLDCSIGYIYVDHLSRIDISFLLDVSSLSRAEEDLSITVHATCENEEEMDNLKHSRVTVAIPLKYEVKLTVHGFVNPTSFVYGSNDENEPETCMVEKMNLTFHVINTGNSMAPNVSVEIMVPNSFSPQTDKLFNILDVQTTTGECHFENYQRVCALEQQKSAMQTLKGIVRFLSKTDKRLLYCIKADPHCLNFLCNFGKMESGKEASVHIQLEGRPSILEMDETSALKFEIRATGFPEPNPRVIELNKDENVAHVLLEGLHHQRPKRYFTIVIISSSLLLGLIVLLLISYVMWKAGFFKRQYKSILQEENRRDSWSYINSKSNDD
Sequence (P05556 21-798): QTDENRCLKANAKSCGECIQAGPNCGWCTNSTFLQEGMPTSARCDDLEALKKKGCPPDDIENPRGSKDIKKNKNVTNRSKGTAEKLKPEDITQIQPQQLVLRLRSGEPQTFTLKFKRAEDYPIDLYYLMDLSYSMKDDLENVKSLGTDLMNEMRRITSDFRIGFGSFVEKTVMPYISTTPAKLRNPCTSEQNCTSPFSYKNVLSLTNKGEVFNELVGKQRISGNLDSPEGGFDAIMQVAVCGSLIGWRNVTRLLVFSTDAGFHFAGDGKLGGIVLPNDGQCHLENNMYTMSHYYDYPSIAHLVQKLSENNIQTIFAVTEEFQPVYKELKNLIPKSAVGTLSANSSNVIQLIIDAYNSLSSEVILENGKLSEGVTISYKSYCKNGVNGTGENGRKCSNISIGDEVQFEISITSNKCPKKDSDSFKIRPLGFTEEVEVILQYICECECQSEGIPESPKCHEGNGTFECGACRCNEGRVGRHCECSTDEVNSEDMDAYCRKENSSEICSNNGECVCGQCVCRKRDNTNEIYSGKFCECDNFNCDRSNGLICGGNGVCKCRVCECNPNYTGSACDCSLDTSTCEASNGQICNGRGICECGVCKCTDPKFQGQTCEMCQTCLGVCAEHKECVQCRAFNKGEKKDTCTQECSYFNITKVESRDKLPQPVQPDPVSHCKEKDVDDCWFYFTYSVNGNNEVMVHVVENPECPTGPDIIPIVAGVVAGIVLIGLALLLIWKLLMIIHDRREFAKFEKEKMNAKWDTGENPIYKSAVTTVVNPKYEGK
Assay: VLA-4/VCAM-1 Screening Assay (solid-phase, dual antibody ELISA)
Conditions: Ramos cell-derived VLA-4, recombinant human VCAM-1 coated plates, 2 hr at 37° C.; read-out: IC50
Protocol: VLA-4 antagonist activity, defined as ability to compete for binding to immobilized VCAM-1 was quantitated using a solid-phase, dual antibody ELISA. VLA-4 (α4β1 integrin) bound to VCAM-1 was detected by a complex of anti-integrin β1 antibody: HRP-conjugated anti-mouse IgG: chromogenic substrate (K-Blue). […] Results were calculated as % inhibition of total binding (i.e., VLA-4+VCAM-1 in the absence of test compound).
Label yes (1) when IC50 is strictly below 5 nM; at or above that, label no (0).

-- ask is_below(IC50, 5 nM) for CC(=O)N[C@@H](Cc1ccc(O)cc1)C(=O)Nc1ccc(C[C@H](NC(=O)C2(C)CC2(Cl)Cl)C(=O)O)cc1 (stereo partly shown) ?
-- reply no (0)

-- ask Here's an entry: COc1ccc(C2(C(=O)N[C@@H](Cc3ccc(NS(=O)(=O)c4c(C)cc(C)cc4C)cc3)C(=O)O)CCCCC2)cc1 . Is its IC50 below 5 nM?
-- reply no (0)

-- ask Regarding COCCC1(C(=O)N[C@@H](Cc2ccc(NC(=O)c3cc(C#N)ccc3Cl)cc2)C(=O)O)CCCC1 , kindly confirm whether its IC50 is beneath 5 nM.
-- reply yes (1)

-- ask Does O=C(Nc1ccc(C[C@H](NC(=O)C23CC4CC(CC(C4)C2)C3)C(=O)O)cc1)c1c(Cl)cccc1Cl have IC50 strictly under 5 nM?
-- reply yes (1)

-- ask is_below(IC50, 5 nM) for CCOC(=O)c1ccccc1NC(=O)Nc1ccc(C[C@H](NC(=O)C2(C)CC2(Cl)Cl)C(=O)O)cc1 (stereo partly shown) ?
-- reply no (0)
